Taken from ChEMBL document CHEMBL1127484.

I'd appreciate it if you could supply LD50 values for the items below.
assay: Dose encompassing the 50% lethal effect was recorded when administered intraperitoneally in mice; assay type: ADME, organism-based; settings: mouse, in vivo, ip

// solved cases for LD50 follow
>>> endpoint_result("Cn1c(-c2cccs2)nnc1[S+](C)[O-] (configuration not stated)")
"> 800 mg/kg"
>>> endpoint_result("Cc1ccc(-c2nnc(S(C)(=O)=O)n2C)cc1")
"> 800 mg/kg"
>>> endpoint_result("Cn1c(-c2ccccc2)nnc1S(C)(=O)=O")
"> 800 mg/kg"
>>> endpoint_result("Cn1c(-c2cccc3ccccc23)nnc1S(C)(=O)=O")
"> 800 mg/kg"
>>> endpoint_result("CSc1n[nH]c(-c2ccc(F)cc2)n1")
"> 800 mg/kg"
>>> endpoint_result("Cn1nc(-c2ccccc2)nc1S(C)(=O)=O")
"> 800 mg/kg"

Now turn to the next compound.
Challenge: May I ask what LD50 has been recorded for `CCn1c(SC)nnc1-c1ccc(Cl)cc1` ?
Response given: > 800 mg/kg
